# Tested on: Pseudomonas fluorescens HPPD polypeptide (wild-type and mutants)
# PROTOCOL: Coupled HPPD activity assay: turnover and residual turnover in crude HPPD polypeptide extracts with and without Cmpd. 1
# Type: biochemical
# CONDITION_CONTEXT: absence of Cmpd. 1; changes in absorbance (OD) at 320 nm in the coupled assay, 30 min
Turnover vs 0.2: at or above is yes (1), below is no (0).

Inquiry: Hello, I need to know if SEQ ID NO:6 (protein, mutant HPPD polypeptide) MADLYENPMGLMGFEFIEFASPTPGTLEPIFEIMGFTKVATHRSKNVHLYRQGEINLILNNEPNSIASYFAAEHGPSVCGMAFRVKDSQKAYNRALELGAQPIHIDTGPMELNLPAIKGIGGAPLYLIDRFGEGSSIYDIDFVYLEGVERNPVGAGLKVIDHLTHNVYRGRMVYWANFYEKLFNFREARYFDIKGEYTGLTSKAMSAPDGMIRIPLNEESSKGAGQIEEFLMQFNGEGIQHVAFLTDDLVKTWDALKKIGMRFMTAPGDEYYEMLEGRLPDHGEPVDQLQARGILLDGSSVEGDKRLLLQIFSETLMGPVFFEFIQRKGDDGFGPDSFKVLFESIERDQVRRGVLTAD has measured Turnover not below 0.2. Thanks!
Reply text: no (0)

Inquiry: # check: Turnover of SEQ ID NO:24 (protein, mutant HPPD polypeptide) MADLYENPMGLMGFEFIEFASPTPGTLEPIFEIMGFTKVATHRSKNVHLYRQGEINLILNNEPNSIASYFAAEHGPSVCGMAFRVKDSQKAYNRALELGAQPIHIDTGPMELNLPAIKGIGGAPLYLIDRFGEGSSIYDIDFVYLEGVERNPVGAGLKVIDHLTHNVYRGRMVYWANFYEKLFNFREARYFDIKGEYTGLTSKAMSAPDGMIRIPLNEESSKGAGQIEEFLMQFNGEGIQHVAFLTDDLVKTWDALKKIGMRFMTAPGDEYYEMLEGRLPDHGEPVDQLQARGILLDGSSVEGDKRLLLQIFSERLMGPVFFEFIQRKGDDGFGPHSFKVLFESIERDQVRRGVLTAD is greater than or equal to 0.2
Reply text: yes (1)

Inquiry: In plain terms: is recorded Turnover at least 0.2 for SEQ ID NO:11 (protein, mutant HPPD polypeptide) MADLYENPMGLMGFEFIEFASPTPGTLEPIFEIMGFTKVATHRSKNVHLYRQGEINLILNNEPNSIASYFAAEHGPSVCGMAFRVKDSQKAYNRALELGAQPIHIDTGPMELNLPAIKGIGGAPLYLIDRFGEGSSIYDIDFVYLEGVERNPVGAGLKVIDHLTHNVYRGRMVYWANFYEKLFNFREARYFDIKGEYTGLTSKAMSAPDGMIRIPLNEESSKGAGQIEEFLMQFNGEGIQHVAFLTDDLVKTWDALKKIGMRFMTAPGDEYYEMLEGRLPDHGEPVDQLQARGILLDGSSVEGDKRLLLQIFSEQLMGPVFFEFIQRKGDDGFGPDSFKVLFEQIERDQVRRGVLTAD ?
Reply text: no (0)

Inquiry: Given SEQ ID NO:21 (protein, mutant HPPD polypeptide) MADLYENPMGLMGFEFIEFASPTPGTLEPIFEIMGFTKVATHRSKNVHLYRQGEINLILNNEPNSIASYFAAEHGPSVCGMAFRVKDSQKAYNRALELGAQPIHIDTGPMELNLPAIKGIGGAPLYLIDRFGEGSSIYDIDFVYLEGVERNPVGAGLKVIDHLTHNVYRGRMVYWANFYEKLFNFREARYFDIKGEYTGLTSKAMSAPDGMIRIPLNEESSKGAGQIEEFLMQFNGEGIQHVAFLTDDLVKTWDALKKIGMRFMTAPGDEYYEMLEGRLPDHGEPVDQLQARGILLDGSSVEGDKRLLLQIFSETLMGPVFFEFIQRKGDDGFGPDSFKVLFEQMERDQVRRGVLTAD , state whether its Turnover is at least 0.2.
Reply text: yes (1)

Inquiry: Please tell me: is the molecule SEQ ID NO:31 (protein, mutant HPPD polypeptide) MADLYENPMGLMGFEFIEFASPTPGTLEPIFEIMGFTKVATHRSKNVHLYRQGEINLILNNEPNSIASYFAAEHGPSVCGMAFRVKDSQKAYNRALELGAQPIHIDTGPMELNLPAIKGIGGAPLYLIDRFGEGSSIYDIDFVYLEGVERNPVGAGLKVIDHLTHNVYRGRMVYWANFYEKLFNFREARYFDIKGEYTGLTSKAMSAPDGMIRIPLNEESSKGAGQIEEFLMQFNGEGIQHVAFLTDDLVKTWDALKKIGMRFMTAPGDEYYEMLEGRLPDHGEPVDQLQARGILLDGSSVEGDKRLLLQIFSEKLMGPVFFEFIQRKGDDGFGPHSFKVLFESMERDQVRRGVLTAD at or over 0.2 in terms of Turnover?
Reply text: yes (1)

Inquiry: hey, is Turnover for this one >= 0.2? SEQ ID NO:38 (protein, mutant HPPD polypeptide) MADLYENPMGLMGFEFIEFASPTPGTLEPIFEIMGFTKVATHRSKNVHLYRQGEINLILNNEPNSIASYFAAEHGPSVCGMAFRVKDSQKAYNRALELGAQPIHIDTGPMELNLPAIKGIGGAPLYLIDRFGEGSSIYDIDFVYLEGVERNPVGAGLKVIDHLTHNVYRGRMVYWANFYEKLFNFREARYFDIKGEYTGLTSKAMSAPDGMIRIPLNEESSKGAGQIEEFLMQFNGEGIQHVAFLTDDLVKTWDALKKIGMRFMTAPGDEYYEMLEGRLPDHGEPVDQLQARGILLDGSSVEGDKRLLLQIFSETLMGPVFFEFIQRKGDDGFGPHSFKVLFEQMERDQVRRGVLTAD
Reply text: no (0)

Next molecule, please.
Inquiry: Exam item: decide whether the reported Turnover for SEQ ID NO:39 (protein, mutant HPPD polypeptide) MADLYENPMGLMGFEFIEFASPTPGTLEPIFEIMGFTKVATHRSKNVHLYRQGEINLILNNEPNSIASYFAAEHGPSVCGMAFRVKDSQKAYNRALELGAQPIHIDTGPMELNLPAIKGIGGAPLYLIDRFGEGSSIYDIDFVYLEGVERNPVGAGLKVIDHLTHNVYRGRMVYWANFYEKLFNFREARYFDIKGEYTGLTSKAMSAPDGMIKIPLNEESSKGAGQIEEFLMQFNGEGIQHVAFLTDDLVKTWDALKKIGMRFMTAPGDEYYEMLEGRLPDHGEPVDQLQARGILLDGSSVEGDKRLLLQIFSEKLMGPVFFEFIQRKGDDGFGPDSFKVLFESMERDQVRRGVLTAD is at least 0.2.
Reply text: no (0)
